Data provenance: patent US9617212B2

MEASUREMENT TARGET: Human MIF (MIF tautomerase) (Homo sapiens, UniProt P14174)
Construct: purchased ProSpec
Sequence (P14174 2-115 limits assumed): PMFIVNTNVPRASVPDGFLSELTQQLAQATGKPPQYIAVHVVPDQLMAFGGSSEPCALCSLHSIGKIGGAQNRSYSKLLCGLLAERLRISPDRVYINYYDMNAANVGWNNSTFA
TEST PROTOCOL: MIF Tautomerase Inhibitory Assay with L-Dopachrome Methyl Ester
Assay type: biochemical
TEST CONTEXT: relative potency class, MIF tautomerase inhibition; L-dopachrome methyl ester substrate, pH 7.34, no pre-incubation; read-out: IC50
pIC50: −log10 of the molar value.
MEASURED METRIC: pIC50

## Input Given the compound CCC(Oc1cccc(F)c1)[C@H]1CC[C@H](CN2Cc3ccc(O)cc3C2=O)CC1 (stereo partly shown) , what is its reported pIC50?
## Output > 6.00

## Input Using the record for `O=C1c2cc(O)ccc2CN1Cc1ccccc1` , report its pIC50.
## Output 4.30 to 5.00

## Input Look up pIC50: O=C(OC1CCCC1)C1CCC(CCN2Cc3ccc(O)cc3C2=O)CC1 (stereo not shown) [drawing 138]
## Output 5.30 to 6.00

## Input Any idea what pIC50 was measured for CC1CCCCC1N1Cc2ccc(O)cc2C1=O (stereo not shown) ?
## Output 4.30 to 5.00

## Input Returns the measured pIC50 for the input compound. Input: `O=C1c2cc(O)ccc2CN1CCc1ccc(F)cc1`
## Output 4.30 to 5.00

## Input Please give the measured pIC50 for this compound: CC([C@H]1CC[C@H](CN2Cc3ccc(O)cc3C2=O)CC1)N1CCOCC1 (stereo partly shown)
## Output > 6.00

## Input Dear colleague, I am looking for the recorded pIC50 of the following compound: `O=C1c2cc(O)ccc2CN1C[C@H]1CC[C@H](COc2ccc(F)cc2)CC1`
## Output > 6.00

## Input Look up pIC50 for this compound: CCC(Oc1cccc(OC(F)(F)F)c1)C1CCC(CN2Cc3ccc(O)c(F)c3C2=O)CC1 (stereo not shown)
## Output > 6.00

## Input State the recorded pIC50 for this entry: COC(C)[C@H]1CC[C@H](CN2Cc3ccc(O)c(F)c3C2=O)CC1 (stereo partly shown)
## Output 5.30 to 6.00

## Input Please look up its pIC50: CC(N[C@H](CO)C(=O)O)[C@H]1CC[C@H](CN2Cc3ccc(O)c(F)c3C2=O)CC1 (single isomer, unassigned)
## Output > 6.00

## Input Dear colleague, I am looking for the recorded pIC50 of the following compound: CC(N)[C@H]1CC[C@H](CN2Cc3ccc(O)c(F)c3C2=O)CC1 (stereo partly shown)
## Output > 6.00

## Input Fill blank: measured pIC50 of the compound CC[C@@H](C(=O)OC(C)[C@H]1CC[C@H](CN2Cc3ccc(O)c(F)c3C2=O)CC1)c1ccccc1 (stereo partly shown) is ____.
## Output > 6.00

## Input Consider the compound CC(N[C@H](C)C(=O)O)[C@H]1CC[C@H](CN2Cc3ccc(O)c(F)c3C2=O)CC1 (single isomer, unassigned) and give its measured pIC50.
## Output > 6.00

## Input Given the entry COC(=O)[C@@H](CO)NC(C)[C@H]1CC[C@H](CN2Cc3ccc(O)c(F)c3C2=O)CC1 (single isomer, unassigned) , report its measured pIC50.
## Output > 6.00

## Input Given the entry `COc1cc(F)cc(OC[C@H]2CC[C@H](CN3Cc4ccc(O)cc4C3=O)CC2)c1` , report its measured pIC50.
## Output > 6.00

## Input Fill in the blank: the reported pIC50 of COc1cccc(OC(CCC2CCCCC2)[C@H]2CC[C@H](CN3Cc4ccc(O)cc4C3=O)CC2)c1 (stereo partly shown) is ____.
## Output 5.30 to 6.00

## Input Dear colleague, I am looking for the recorded pIC50 of the following compound: `O=C1c2cc(O)ccc2CN1CC1CCCCCC1`
## Output 5.30 to 6.00

## Input Reported pIC50 for CCCNC(C)[C@H]1CC[C@H](CN2Cc3ccc(O)cc3C2=O)CC1 (stereo partly shown) : what is it?
## Output 5.30 to 6.00

## Input // lookup pIC50 for CC(Oc1cccc(OC(F)(F)F)c1)[C@H]1CC[C@H](CN2Cc3ccc(O)c(F)c3C2=O)CC1 (stereo partly shown)
## Output > 6.00

====

Provide the reported IC50 of each item.
MEASUREMENT TARGET: Human MIF (MIF tautomerase) (Homo sapiens, UniProt P14174)
Construct: purchased ProSpec
TEST PROTOCOL: MIF Tautomerase Inhibitory Assay with L-Dopachrome Methyl Ester
Format: biochemical
TEST CONTEXT: relative potency class, MIF tautomerase inhibition; L-dopachrome methyl ester substrate, pH 7.34, no pre-incubation; read-out: IC50

## Input Would you mind telling me what IC50 value was observed for CC(Oc1cccc(OCCN)c1)[C@H]1CC[C@H](CN2Cc3ccc(O)c(F)c3C2=O)CC1 (some centres unmarked) ?
## Output < 1 µM

## Input Can you look up the measured IC50 of COC(=O)CCNC(C)C1CCC(CN2Cc3ccc(O)c(F)c3C2=O)CC1 (centres unmarked) for me?
## Output < 1 µM

## Input Any idea what IC50 was measured for COc1cc(OC(C)[C@H]2CC[C@H](CN3Cc4ccc(O)c(F)c4C3=O)CC2)ccc1F (some centres unmarked) ?
## Output < 1 µM

## Input Can you share its IC50? I mean this compound: `O=C1c2cc(O)ccc2CN1C1CCCCC1`
## Output 5 to 10 µM

## Input Need IC50 of `O=C1c2cc(O)ccc2CN1C[C@H]1CC[C@H](C(=O)OC2CCCCCC2)CC1` , thanks.
## Output 5 to 10 µM

====

MEASUREMENT TARGET: Human MIF (MIF tautomerase) (Homo sapiens, UniProt P14174)
Construct: purchased ProSpec
Sequence (P14174 2-115 limits assumed): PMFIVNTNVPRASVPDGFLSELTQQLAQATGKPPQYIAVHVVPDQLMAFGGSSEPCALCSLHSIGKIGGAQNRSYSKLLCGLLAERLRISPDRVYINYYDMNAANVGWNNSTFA
TEST PROTOCOL: MIF Tautomerase Inhibitory Assay with L-Dopachrome Methyl Ester
Assay type: biochemical
TEST CONTEXT: relative potency class, MIF tautomerase inhibition; L-dopachrome methyl ester substrate, pH 7.34, no pre-incubation; read-out: IC50
Kindly supply the reported IC50 values for the records listed here.

## Input Tell me the measured IC50 of `CNCCOc1cccc(OC[C@H]2CC[C@H](CN3Cc4ccc(O)c(F)c4C3=O)CC2)c1` , please.
## Output < 1000 nM

## Input For CC(Oc1cccc(OCCN2CCOCC2)c1)[C@H]1CC[C@H](CN2Cc3ccc(O)c(F)c3C2=O)CC1 (some centres unmarked) , what is its reported IC50?
## Output < 1000 nM

## Input Please report the recorded IC50 for `COC(=O)CCCN1Cc2ccc(O)cc2C1=O` .
## Output 5000 to 10000 nM

## Input Name the recorded IC50 for CNCCOc1cccc(OC(C)[C@H]2CC[C@H](CN3Cc4ccc(O)c(F)c4C3=O)CC2)c1 (some centres unmarked) .
## Output < 1000 nM

## Input For the compound shown here, CC(C)[C@@H](NC(C)[C@H]1CC[C@H](CN2Cc3ccc(O)c(F)c3C2=O)CC1)C(=O)O (single isomer, unassigned) , give the reported IC50.
## Output < 1000 nM

## Input Value lookup for IC50; key = `CNC(=O)[C@H]1CC[C@H](CN2Cc3ccc(O)cc3C2=O)CC1`
## Output 1000 to 5000 nM

## Input Value lookup for IC50; key = CCCC(Oc1cccc(F)c1)[C@H]1CC[C@H](CN2Cc3ccc(O)cc3C2=O)CC1 (some centres unmarked)
## Output < 1000 nM

## Input What does the record list as IC50 for CC(OC(=O)CCC(=O)O)[C@H]1CC[C@H](CN2Cc3ccc(O)c(F)c3C2=O)CC1 (some centres unmarked) ?
## Output < 1000 nM

## Input // query IC50 value for entry CC(CC1CCCCC1)N1Cc2ccc(O)cc2C1=O (centres unmarked)
## Output 10000 to 50000 nM

## Input Return reported IC50; argument: `COC(=O)CCN1Cc2ccc(O)cc2C1=O`
## Output 5000 to 10000 nM

## Input Report IC50 for CC(Oc1cccc(F)c1)[C@H]1CC[C@H](CN2Cc3cc(F)c(O)cc3C2=O)CC1 (mixture of isomers) [drawing 62] please.
## Output < 1000 nM

====

MEASUREMENT TARGET: Human MIF (MIF tautomerase) (Homo sapiens)
Construct: purchased ProSpec
Sequence (P14174 2-115 limits assumed): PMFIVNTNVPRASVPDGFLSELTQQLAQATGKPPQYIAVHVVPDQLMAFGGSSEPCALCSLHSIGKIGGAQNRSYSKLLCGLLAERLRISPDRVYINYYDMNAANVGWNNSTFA
TEST PROTOCOL: MIF Tautomerase Inhibitory Assay with L-Dopachrome Methyl Ester
Type: biochemical
TEST CONTEXT: relative potency class, MIF tautomerase inhibition; L-dopachrome methyl ester substrate, pH 7.34, no pre-incubation; read-out: IC50
pIC50: −log10 of the molar value.
MEASURED METRIC: pIC50

## Input Quick one: pIC50 for COC(=O)[C@H](C)NC(C)[C@H]1CC[C@H](CN2Cc3ccc(O)c(F)c3C2=O)CC1 (single isomer, unassigned) ?
## Output > 6.00

## Input Look up pIC50 for this molecule: CC(C)C[C@@H](NC(C)C1CCC(CN2Cc3ccc(O)c(F)c3C2=O)CC1)C(=O)O (stereo partly drawn) [drawing 107]
## Output > 6.00

## Input Which pIC50 is listed for `O=C1c2cc(O)ccc2CN1[C@H]1CC[C@H](O)CC1` ?
## Output 4.30 to 5.00

## Input Tell me the measured pIC50 of CC(Oc1cccc(OC[C@H](N)C(=O)O)c1)[C@H]1CC[C@H](CN2Cc3ccc(O)c(F)c3C2=O)CC1 (stereo partly drawn) , please.
## Output > 6.00

## Input pIC50 for `O=C1c2cc(O)ccc2CN1C[C@H]1CC[C@H](COc2ccccc2)CC1` ?
## Output > 6.00

## Input Fill in: pIC50 of CC(NCC(=O)O)[C@H]1CC[C@H](CN2Cc3ccc(O)c(F)c3C2=O)CC1 (stereo partly drawn) is ___
## Output > 6.00

## Input Fill blank: measured pIC50 of the molecule COC(=O)[C@H](C)NC(C)C1CCC(CN2Cc3ccc(O)c(F)c3C2=O)CC1 (stereo partly drawn) is ____.
## Output > 6.00

## Input What value of pIC50 has been reported for the following molecule? `O=C1c2cc(O)ccc2CN1CCC1CCCCC1`
## Output 5.00 to 5.30

## Input Given the entry CC(NC(CO)CO)C1CCC(CN2Cc3ccc(O)c(F)c3C2=O)CC1 (stereo not drawn) , report its measured pIC50.
## Output > 6.00
